- Target System: SGK3 (Homo sapiens, UniProt Q96BR1)
- Sequence (Q96BR1 1-496): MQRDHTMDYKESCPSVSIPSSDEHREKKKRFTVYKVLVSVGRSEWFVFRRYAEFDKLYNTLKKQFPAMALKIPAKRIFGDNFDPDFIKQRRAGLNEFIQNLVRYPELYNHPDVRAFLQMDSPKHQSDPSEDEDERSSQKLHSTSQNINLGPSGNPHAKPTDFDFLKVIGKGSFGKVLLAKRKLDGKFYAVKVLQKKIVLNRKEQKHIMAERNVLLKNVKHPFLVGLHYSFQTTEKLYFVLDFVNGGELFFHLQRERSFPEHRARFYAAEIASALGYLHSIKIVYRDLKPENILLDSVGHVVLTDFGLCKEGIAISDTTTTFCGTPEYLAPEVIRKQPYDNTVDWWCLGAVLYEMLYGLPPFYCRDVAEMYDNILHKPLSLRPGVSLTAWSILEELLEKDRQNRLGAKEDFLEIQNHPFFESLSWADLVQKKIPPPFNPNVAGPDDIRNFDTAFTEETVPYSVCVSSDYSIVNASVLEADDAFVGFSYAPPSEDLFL
- Assay Remarks: IC50 determination, biochemical kinase assay
- Assay Setup: not in the presence of VHL
Value Kind: pIC50
Note on pIC50: it is the negative log10 of concentration, concentration in mol/L.

INSERT INTO results (compound, target_system, numeric_value) VALUES
  ('Cc1ccc(F)c(S(=O)(=O)Nc2ccc(-c3nc(OC[C@H]4CN(CCOCCOCCOCC(=O)NCCNc5cccc6c5C(=O)N(C5CCC(=O)NC5=O)C6=O)CCO4)c4cn[nH]c4n3)cc2)c1 (stereo partly drawn) [DAT3]', 'SGK3 (Homo sapiens, UniProt Q96BR1)', 6.19),
  ('COc1ccc(Cl)c(S(=O)(=O)Nc2ccc(-c3nc(OC[C@H]4CN(CCCCCCOCCOCCOCCOCC(=O)N[C@H](C(=O)N5C[C@H](O)C[C@H]5C(=O)NCc5ccc(-c6scnc6C)cc5)C(C)(C)C)CCO4)c4c(C)n[nH]c4n3)cc2)c1 [DAT11]', 'SGK3 (Homo sapiens, UniProt Q96BR1)', 6.14),
  ('Cc1ccc(F)c(S(=O)(=O)Nc2ccc(-c3nc(OC[C@H]4CN(CCCCCCOCCOCCOCCOCC(=O)N[C@H](C(=O)N5C[C@H](O)C[C@H]5C(=O)NCc5ccc(-c6scnc6C)cc5)C(C)(C)C)CCO4)c4cn[nH]c4n3)cc2)c1 [DAT9]', 'SGK3 (Homo sapiens, UniProt Q96BR1)', 5.75),
  ('Cc1ccc(F)c(S(=O)(=O)Nc2ccc(-c3nc(OC[C@H]4CNCCO4)c4cn[nH]c4n3)cc2)c1 [308-R, reference compound]', 'SGK3 (Homo sapiens, UniProt Q96BR1)', 8.30),
  ('COc1ccc(Cl)c(S(=O)(=O)Nc2ccc(-c3nc(OC[C@H]4CNCCO4)c4c(C)n[nH]c4n3)cc2)c1 [290-R, reference compound]', 'SGK3 (Homo sapiens, UniProt Q96BR1)', 7.46);

Next, consider the following compound.
*Q* # returns recorded pIC50 (system: SGK3 (Homo sapiens, UniProt Q96BR1)) for COc1ccc(Cl)c(S(=O)(=O)Nc2ccc(-c3nc(OC[C@H]4CN(CCOCCOCCOCC(=O)N[C@H](C(=O)N5C[C@H](O)C[C@H]5C(=O)NCc5ccc(-c6scnc6C)cc5)C(C)(C)C)CCO4)c4c(C)n[nH]c4n3)cc2)c1 [DAT2]
*A* 6.72
